Ref: the supplement of paper PMC10567573

Listed here: items and their measured protein stability index.
B1: BTBD1 (parent)
chain: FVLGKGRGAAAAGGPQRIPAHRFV

# Variants of: B1
# Assay text: protein stability index of a GFP-peptide fusion (GPS, HEK-293T) (PSI 1-6); higher = more stable;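 note: lentivirally expressed fusions sorted by FACS into six bins by GFP to DsRed ratio, PSI derived from sequencing read proportions per bin multiplied by bin number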
# Measurement setup: c terminus: a fixed tail appended
Please reply with the number alone, leaving off any unit.

# annotated cases, reported protein stability index shown
- Alteration: "V2C"
  protein stability index: 2.18
- Alteration: "R7M"
  protein stability index: 2.03
- Alteration: "F23V"
  protein stability index: 1.93
- Alteration: "L3A"
  protein stability index: 2.17
- Alteration: "F1Q"
  protein stability index: 3.28

protein stability index reading for V2E : 3.38

The variant listed as V2W shows protein stability index equal to 1.76

A11R has a reported protein stability index of 1.41

Reported protein stability index for H21Q was 1.91

Sure, the documented protein stability index for L3D is 2.2

Looking up F23N , I found its protein stability index recorded as 1.9

Looking up G13I , I found its protein stability index recorded as 2.25

Record G4W , field protein stability index: 1.2

Noted for P15E : its protein stability index reads 1.81
